Kindly state EC50 for each of the entries shown.
biological target: apelin receptor (APJ) (Homo sapiens, UniProt P35414); test: In vitro apelin agonist activity (methods of Giddings et al., Apelin-13 as positive control); format: cell-based; conditions: in vitro apelin agonist activity, methods of Giddings et al., Apelin-13 as positive control; read-out: EC50 (nM) Ave
Sequence (P35414 whole entry): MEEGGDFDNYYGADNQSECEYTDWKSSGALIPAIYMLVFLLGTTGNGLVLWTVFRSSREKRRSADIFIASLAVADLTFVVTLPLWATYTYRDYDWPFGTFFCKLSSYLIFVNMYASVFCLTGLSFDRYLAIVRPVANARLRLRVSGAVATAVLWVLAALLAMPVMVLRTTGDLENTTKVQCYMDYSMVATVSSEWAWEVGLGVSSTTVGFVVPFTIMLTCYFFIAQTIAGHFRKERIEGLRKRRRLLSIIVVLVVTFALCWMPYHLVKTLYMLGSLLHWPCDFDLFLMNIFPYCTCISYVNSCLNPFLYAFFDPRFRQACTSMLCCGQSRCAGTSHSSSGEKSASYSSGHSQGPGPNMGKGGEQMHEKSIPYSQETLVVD

// Input: `COc1cccc(OC)c1-c1cc(C(=O)N[C@@H](CC2CC2)C(=O)O)nn1C1CCCC1` . Output its EC50 only.
> 10000 nM

// Input: `CCN(CC)CC[C@@H](CC(=O)OC(C)(C)C)NC(=O)c1cc(-c2c(OC)cccc2OC)n(C2CCCC2)n1` . Output its EC50 only.
> 10000 nM

// Input: `O=C(N[C@@H](CC1CCCCC1)C(=O)O)c1cc(-c2ccccc2C(F)(F)F)n(C2CCCC2)n1` . Output its EC50 only.
1030 nM

// Input: `O=C(C[C@H](CCN1CCCCC1)NC(=O)c1cc(-c2c(F)cc(F)cc2F)n(C2CCCC2)n1)NC1CCC1` . Output its EC50 only.
> 10000 nM

// Input: `COc1cccc(OC)c1-c1cc(C(=O)N[C@@H](CCN2CCCCC2)CC(=O)Nc2ncco2)nn1C1CCCC1` . Output its EC50 only.
31 nM

// Input: `CN(CC[C@@H](CC(=O)NC1CCC1)NC(=O)c1cc(-c2ccccc2C(F)(F)F)n(C2CCCC2)n1)C1CCC1` . Output its EC50 only.
32 nM

// Input: `COc1cccc(OC)c1-c1cc(C(=O)N[C@@H](CCc2ccccc2)C(=O)Nc2nccs2)nn1C1CCCC1` . Output its EC50 only.
> 10000 nM

// Input: `Cc1noc(C)c1-c1cc(C(=O)N[C@@H](CCN2CCCCC2)CC(=O)NC2CCC2)nn1C1CCCC1` . Output its EC50 only.
> 10000 nM

// Input: `COc1cccc(OC)c1-c1cc(C(=O)N[C@@H](CCN2CCOCC2)CC(=O)OC(C)(C)C)nn1C1CCCC1` . Output its EC50 only.
> 10000 nM

// Input: `O=C(O)C[C@H](CCN1CCCC(F)(F)C1)NC(=O)c1nc(-c2cccnc2C(F)(F)F)n(C2CCCC2)n1` . Output its EC50 only.
> 10000 nM

* * *

molecular target: apelin receptor (APJ) (Homo sapiens, UniProt P35414); assay: In vitro apelin agonist activity (methods of Giddings et al., Apelin-13 as positive control); assay type: cell-based; conditions: in vitro apelin agonist activity, methods of Giddings et al., Apelin-13 as positive control; read-out: EC50 (nM) Ave
Kindly state log10 EC50 for each of the entries shown.
Hey, these are logged values: log10 of EC50, nM being the unit before logging.

Fill: log10 EC50 (apelin receptor (APJ) (Homo sapiens, UniProt P35414)) for this compound `O=C(O)C[C@H](CCN1CCCC(F)(F)C1)NC(=O)c1cc(-c2ccccc2C(F)(F)F)n(CC2CCC2)n1`
2.11

Fill: log10 EC50 (apelin receptor (APJ) (Homo sapiens, UniProt P35414)) for this compound `COc1cccc(OC)c1-c1cc(C(=O)N[C@@H](CCc2ccc(F)cc2)CC(=O)Nc2nccs2)nn1C1CCCC1`
1.56

Fill: log10 EC50 (apelin receptor (APJ) (Homo sapiens, UniProt P35414)) for this compound `CCc1ccccc1-c1cc(C(=O)N[C@@H](CCN2CCC(F)(F)CC2)CC(=O)NC2CCC2)nn1C1CCCC1`
1.16

Fill: log10 EC50 (apelin receptor (APJ) (Homo sapiens, UniProt P35414)) for this compound `COCCN(C)C(=O)[C@H](CCc1ccccc1)NC(=O)c1cc(-c2ccccc2C(F)(F)F)n(C2CCCC2)n1`
2.02

Fill: log10 EC50 (apelin receptor (APJ) (Homo sapiens, UniProt P35414)) for this compound `CCc1ccccc1-c1cc(C(=O)N[C@@H](CCN2CCCC(F)(F)C2)CC(=O)O)nn1C1CCCC1`
1.81

Fill: log10 EC50 (apelin receptor (APJ) (Homo sapiens, UniProt P35414)) for this compound `O=C(C[C@H](CCNC(=O)C1CCCC1)NC(=O)c1cc(-c2ccccc2C(F)(F)F)n(C2CCCC2)n1)NC1CCC1`
1.59

Fill: log10 EC50 (apelin receptor (APJ) (Homo sapiens, UniProt P35414)) for this compound `COc1cccc(OC)c1-c1cc(C(=O)N[C@@H](CCN2CCOCC2)CC(=O)NC2CCC2)nn1C1CCCC1`
2.54

Fill: log10 EC50 (apelin receptor (APJ) (Homo sapiens, UniProt P35414)) for this compound `Cc1cc(C)n(CC[C@@H](CC(=O)NC2CCC2)NC(=O)c2cc(-c3ccccc3C(F)(F)F)n(C3CCCC3)n2)n1`
2.20

Fill: log10 EC50 (apelin receptor (APJ) (Homo sapiens, UniProt P35414)) for this compound `NS(=O)(=O)C[C@H](CC(=O)N1CCCC(F)(F)C1)NC(=O)c1cc(-c2ccccc2C(F)(F)F)n(C2CCCC2)n1`
3.14

Fill: log10 EC50 (apelin receptor (APJ) (Homo sapiens, UniProt P35414)) for this compound `O=C(O)C[C@H](CC(=O)N1CCCCC1)NC(=O)c1cc(-c2ccccc2C(F)(F)F)n(C2CCCC2)n1`
2.68

Fill: log10 EC50 (apelin receptor (APJ) (Homo sapiens, UniProt P35414)) for this compound `CCN(C(=O)c1cc(-c2ccccc2OC(F)(F)F)n(C2CCCC2)n1)[C@@H](CCN1CCCCC1)CC(=O)NC1CCC1`
3.37

Fill: log10 EC50 (apelin receptor (APJ) (Homo sapiens, UniProt P35414)) for this compound `O=C(O)C[C@H](CCN1CC[C@H](F)C1)NC(=O)c1cc(-c2ccccc2C(F)(F)F)n(C2CCCC2)n1`
2.82

Fill: log10 EC50 (apelin receptor (APJ) (Homo sapiens, UniProt P35414)) for this compound `CN(C(=O)C[C@H](CCN1CCCC[C@@H]1C(F)(F)F)NC(=O)c1cc(-c2ccccc2C(F)(F)F)n(C2CCCC2)n1)c1nccs1`
2.21

Where do the numbers come from? From patent US11535630B2.
